tested-on: mAChR M4 (Homo sapiens)
Sequence (P08173 1-479): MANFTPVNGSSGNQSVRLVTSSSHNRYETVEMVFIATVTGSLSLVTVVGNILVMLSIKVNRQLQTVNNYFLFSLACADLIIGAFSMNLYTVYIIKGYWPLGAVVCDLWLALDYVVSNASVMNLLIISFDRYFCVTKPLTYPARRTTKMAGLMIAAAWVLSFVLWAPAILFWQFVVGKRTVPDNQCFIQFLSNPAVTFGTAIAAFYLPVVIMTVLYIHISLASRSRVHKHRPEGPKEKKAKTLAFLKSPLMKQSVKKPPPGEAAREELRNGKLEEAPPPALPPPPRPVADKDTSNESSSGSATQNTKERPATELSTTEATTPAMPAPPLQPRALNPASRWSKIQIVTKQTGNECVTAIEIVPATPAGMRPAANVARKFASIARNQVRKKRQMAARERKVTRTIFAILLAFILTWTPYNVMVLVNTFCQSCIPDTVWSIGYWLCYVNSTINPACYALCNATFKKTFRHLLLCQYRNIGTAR
test: mAChR M4 cell-based functional assay (calcium mobilization, potentiation of EC20 acetylcholine response)
test-settings: CHO-K1 cells expressing mAChR M4 (Gqi5), calcium flux, increase in EC20 acetylcholine response; >10,000 estimated where the curve has no plateau
pEC50: −log10 of the molar value.
attribute-measured: pEC50

Some compounds with recorded pEC50:
{"compound": "Cc1nnc2sc(C(=O)NC3CC(F)(F)C3)c(C3CC3)c2c1C [B17]", "tested-on": "mAChR M4 (Homo sapiens)", "pEC50": "< 5.00"}
{"compound": "Cc1nnc2sc(C(=O)NCc3ccc(S(=O)(=O)C(F)(F)F)cc3)c(Br)c2c1C [B1]", "tested-on": "mAChR M4 (Homo sapiens)", "pEC50": "< 5.00"}
{"compound": "Cc1nnc2sc(C(=O)NC3CCN(c4ccccc4)C3)cc2c1C (stereo not shown) [B5]", "tested-on": "mAChR M4 (Homo sapiens)", "pEC50": "< 5.00"}

// pEC50 value for Cc1nnc2sc(C(=O)NC3CC3)c(C)c2c1C [B14] : < 5.00

// pEC50 value for Cc1nnc2sc(C(=O)NC3CN(c4ccc(C(F)(F)F)nc4)C3)c(C3CC3)c2c1C [B22] : 5.51

// pEC50 value for Cc1nnc2sc(C(=O)NC3CC3)c(C3CC3)c2c1C [B11] : < 5.00

// pEC50 value for Cc1nnc2sc(C(=O)N3CCC(c4ccccc4)C3)c(C3CC3)c2c1C (stereo not shown) [B16] : < 5.00

// pEC50 value for Cc1nnc2sc(C(=O)NC3COC3)cc2c1C [B6] : 5.41

// pEC50 value for Cc1nnc2sc(C(=O)NC3COC3)c(C)c2c1C [B23] : < 5.00

// pEC50 value for Cc1nnc2sc(C(=O)NC3COC3)c(C3CC3)c2c1C [B13] : ~5.05

###

tested-on: mAChR M4 (Homo sapiens, UniProt P08173)
Sequence (P08173 1-479): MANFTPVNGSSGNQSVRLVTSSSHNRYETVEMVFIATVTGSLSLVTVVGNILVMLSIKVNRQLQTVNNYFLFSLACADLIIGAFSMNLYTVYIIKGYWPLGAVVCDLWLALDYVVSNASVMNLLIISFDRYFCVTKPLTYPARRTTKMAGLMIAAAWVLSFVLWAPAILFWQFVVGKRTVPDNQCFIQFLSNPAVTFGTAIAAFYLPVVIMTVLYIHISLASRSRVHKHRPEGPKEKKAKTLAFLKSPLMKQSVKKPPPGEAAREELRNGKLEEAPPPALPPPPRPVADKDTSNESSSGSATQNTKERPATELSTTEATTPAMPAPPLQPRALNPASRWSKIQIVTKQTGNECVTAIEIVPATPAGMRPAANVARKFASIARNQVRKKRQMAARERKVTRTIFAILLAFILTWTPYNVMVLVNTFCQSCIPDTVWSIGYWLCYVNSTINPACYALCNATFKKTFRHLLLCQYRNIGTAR
test: mAChR M4 cell-based functional assay (calcium mobilization, potentiation of EC20 acetylcholine response)
test-settings: CHO-K1 cells expressing mAChR M4 (Gqi5), calcium flux, increase in EC20 acetylcholine response; >10,000 estimated where the curve has no plateau
Protocol: Chinese hamster ovary (CHO-K1) cells stably expressing rat (r)M1 were purchased from the American Type Culture Collection and cultured according to their indicated protocol. […] Calcium flux was measured using the Functional Drug Screening System (FDSS) 6000 (Hamamatsu Corporation, Tokyo, Japan) as an increase in the fluorescent static ratio. […] Agonist activity was analyzed as a concentration-dependent increase in calcium mobilization upon compound addition. […]
pEC50: −log10 of the molar value.
Reported pEC50 is given for each of the following molecules.

{"molecule": "COc1ccc(C2CC2NC(=O)c2sc3nnc(C)c(C)c3c2C2CC2)cc1 (stereo not drawn) [B12]", "attribute-measured": "pEC50", "reported-result": "< 5.00"}
{"molecule": "Cc1nnc2sc(C(=O)N3CCC(c4ccccc4)C3)c(C)c2c1C (stereo not drawn) [B19]", "attribute-measured": "pEC50", "reported-result": "< 5.00"}

// pEC50 value for Cc1nnc2sc(C(=O)N3CC(c4ccccc4)C3)c(C3CC3)c2c1C [B8] : < 5.00
